I'd appreciate it if you could supply log10(IC50) values for the items below.
- tested_target: human adrenergic receptor α1A (Homo sapiens)
- Sequence (P35348 whole entry): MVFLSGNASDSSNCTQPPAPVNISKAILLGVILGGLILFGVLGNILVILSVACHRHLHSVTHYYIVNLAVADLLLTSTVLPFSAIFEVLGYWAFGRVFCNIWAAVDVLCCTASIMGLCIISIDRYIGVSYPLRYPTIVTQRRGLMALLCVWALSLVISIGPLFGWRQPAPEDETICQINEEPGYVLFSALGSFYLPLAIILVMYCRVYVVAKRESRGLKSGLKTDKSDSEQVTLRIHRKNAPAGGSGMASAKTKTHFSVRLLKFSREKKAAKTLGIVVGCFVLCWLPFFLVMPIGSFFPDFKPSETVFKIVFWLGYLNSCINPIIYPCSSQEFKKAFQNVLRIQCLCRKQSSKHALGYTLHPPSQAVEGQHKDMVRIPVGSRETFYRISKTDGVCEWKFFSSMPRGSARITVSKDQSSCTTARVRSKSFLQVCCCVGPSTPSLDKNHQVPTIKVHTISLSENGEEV
- method_summary: Intrinsic activity, aequorin luminescence functional assay at α1A-AR
- stated_conditions: cells expressing aequorin and human α1A; against phenylephrine; means of three independent experiments in duplicates
Note: values are log10 of IC50 expressed in nM.

I'd like to know its log10(IC50). The compound in question is COc1ccccc1N1CCN(CC(O)CN2C(=O)N(Cc3ccc(Cl)cc3Cl)C(=O)C2(C)C)CC1.Cl (stereo not shown)
2.14

Ok, now CC1(C)C(=O)N(Cc2ccc(Cl)cc2Cl)C(=O)N1CC(O)CN1CCN(c2ccccc2C#N)CC1.Cl (stereo not shown)
2.21

Ok, now Cc1ccc(N2CCN(CC(O)CN3C(=O)N(Cc4ccc(Cl)cc4Cl)C(=O)C3(C)C)CC2)cc1C.Cl (stereo not shown)
3.50

Ok, now CC1(C)C(=O)N(Cc2ccc(Cl)cc2Cl)C(=O)N1CC(O)CN1CCN(c2ccc(F)cc2F)CC1 (stereo not shown)
2.21

Ok, now `CC1(C)C(=O)N(Cc2ccc(Cl)cc2Cl)C(=O)N1CCCN1CCN(c2cccc(Cl)c2Cl)CC1.Cl`
3.24

Ok, now CC1(C)C(=O)N(Cc2ccc(Cl)cc2Cl)C(=O)N1CC(O)CN1CCN(c2ccccc2)CC1.Cl (stereo not shown)
3.77

Ok, now COc1cccc(N2CCN(CC(O)CN3C(=O)N(Cc4ccc(Cl)cc4Cl)C(=O)C3(C)C)CC2)c1.Cl (stereo not shown)
3.09

Ok, now `CC1(C)C(=O)N(Cc2ccc(Cl)cc2Cl)C(=O)N1CCCCCN1CCN(c2ccccc2)CC1.Cl`
2.46

Ok, now CC1(C)C(=O)N(Cc2ccc(Cl)cc2Cl)C(=O)N1CC(O)CN1CCN(c2ccccc2F)CC1 (stereo not shown)
3.15

Ok, now CC1(C)C(=O)N(Cc2ccc(Cl)cc2Cl)C(=O)N1CC(O)CN1CCN(c2ccc(F)cc2)CC1 (stereo not shown)
2.91

---

- tested_target: human adrenergic receptor α1A (Homo sapiens)
- method_summary: Intrinsic activity, aequorin luminescence functional assay at α1A-AR
- Type: cell-based
- stated_conditions: selectivity for α1A-AR (IC50(α1B-AR)/IC50(α1A-AR))
I'd appreciate it if you could supply Selectivity Ratio α1B/α1A values for the items below.
Respond with the number and no other words.

I'd like to know its Selectivity Ratio α1B/α1A. The molecule in question is CC1(C)C(=O)N(Cc2ccc(Cl)cc2Cl)C(=O)N1CCCCCN1CCN(c2ccccc2)CC1.Cl [Compound 3]
0.01

Ok, now CC1(C)C(=O)N(Cc2ccc(Cl)cc2Cl)C(=O)N1CC(O)CN1CCN(c2ccccc2F)CC1 (stereo not drawn) [Compound 7]
0.34

Ok, now Cc1ccc(N2CCN(CC(O)CN3C(=O)N(Cc4ccc(Cl)cc4Cl)C(=O)C3(C)C)CC2)cc1C.Cl (stereo not drawn) [Compound 12]
0.12

Ok, now COc1ccccc1N1CCN(CC(O)CN2C(=O)N(Cc3ccc(Cl)cc3Cl)C(=O)C2(C)C)CC1.Cl (stereo not drawn) [Compound 13]
2.39

Ok, now COc1ccccc1N1CCN(CCCN2C(=O)N(Cc3ccc(Cl)cc3Cl)C(=O)C2(C)C)CC1.Cl [Compound 1]
0.12

Ok, now CC1(C)C(=O)N(Cc2ccc(Cl)cc2Cl)C(=O)N1CC(O)CN1CCN(c2ccccc2C#N)CC1.Cl (stereo not drawn) [Compound 11]
2.21

Ok, now CC1(C)C(=O)N(Cc2ccc(Cl)cc2Cl)C(=O)N1CC(O)CN1CCN(c2ccc(F)cc2)CC1 (stereo not drawn) [Compound 8]
0.21

Ok, now CC1(C)C(=O)N(Cc2ccc(Cl)cc2Cl)C(=O)N1CC(O)CN1CCN(c2ccccc2)CC1.Cl (stereo not drawn) [Compound 6]
0.15

Ok, now COc1cccc(N2CCN(CC(O)CN3C(=O)N(Cc4ccc(Cl)cc4Cl)C(=O)C3(C)C)CC2)c1.Cl (stereo not drawn) [Compound 14]
1.12

Ok, now CC1(C)C(=O)N(Cc2ccc(Cl)cc2Cl)C(=O)N1CCCN1CCN(c2cccc(Cl)c2Cl)CC1.Cl [Compound 2]
0.66

Ok, now COc1ccccc1N1CCN(CCCCCCN2C(=O)N(Cc3ccc(Cl)cc3Cl)C(=O)C2(C)C)CC1.Cl [Compound 5]
0.10

Ok, now CC1(C)C(=O)N(Cc2ccc(Cl)cc2Cl)C(=O)N1CC(O)CN1CCN(c2ccc(F)cc2F)CC1 (stereo not drawn) [Compound 9]
0.91

---

I'd appreciate it if you could supply log10(IC50) values for the items below.
- tested_target: human adrenergic receptor α1B (Homo sapiens, UniProt P35368)
- Sequence (P35368 whole entry): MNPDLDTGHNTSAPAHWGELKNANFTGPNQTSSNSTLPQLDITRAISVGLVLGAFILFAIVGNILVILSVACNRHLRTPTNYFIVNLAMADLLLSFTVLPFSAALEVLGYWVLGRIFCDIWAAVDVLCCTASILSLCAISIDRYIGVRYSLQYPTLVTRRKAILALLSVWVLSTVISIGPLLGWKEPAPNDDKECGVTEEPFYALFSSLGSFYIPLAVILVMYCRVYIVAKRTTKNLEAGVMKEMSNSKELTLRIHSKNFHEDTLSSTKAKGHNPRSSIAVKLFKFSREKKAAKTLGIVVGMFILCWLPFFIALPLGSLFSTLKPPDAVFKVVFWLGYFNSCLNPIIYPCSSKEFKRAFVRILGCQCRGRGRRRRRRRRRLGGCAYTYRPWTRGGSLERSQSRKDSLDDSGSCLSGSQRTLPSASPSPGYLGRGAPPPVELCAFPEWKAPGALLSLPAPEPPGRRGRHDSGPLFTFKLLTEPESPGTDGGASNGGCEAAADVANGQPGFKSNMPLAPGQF
- method_summary: Intrinsic activity, aequorin luminescence functional assay at α1B-AR
- stated_conditions: cells expressing aequorin and human α1B; against phenylephrine; means of three independent experiments in duplicates
Where a name gives a salt, the structure may show the parent alone.
Note: values are log10 of IC50 expressed in nM.

I'd like to know its log10(IC50). The compound in question is COc1cccc(N2CCN(CC(O)CN3C(=O)N(Cc4ccc(Cl)cc4Cl)C(=O)C3(C)C)CC2)c1.Cl (stereo not shown) [Compound 14]
3.14

Ok, now CC1(C)C(=O)N(Cc2ccc(Cl)cc2Cl)C(=O)N1CC(O)CN1CCN(c2ccccc2)CC1.Cl (stereo not shown) [Compound 6]
2.96

Ok, now Cc1ccc(N2CCN(CC(O)CN3C(=O)N(Cc4ccc(Cl)cc4Cl)C(=O)C3(C)C)CC2)cc1C.Cl (stereo not shown) [Compound 12]
2.58

Ok, now CCOc1ccccc1OCCN[C@H](C)Cc1ccc(OC)c(S(N)(=O)=O)c1 [Tamsulosin, tamsulosin hydrochloride, reference compound]
-0.32

Ok, now CC1(C)C(=O)N(Cc2ccc(Cl)cc2Cl)C(=O)N1CC(O)CN1CCN(c2ccc(F)cc2F)CC1 (stereo not shown) [Compound 9]
2.17

Ok, now COc1ccccc1N1CCN(CC(O)CN2C(=O)N(Cc3ccc(Cl)cc3Cl)C(=O)C2(C)C)CC1.Cl (stereo not shown) [Compound 13]
2.52

Ok, now CC1(C)C(=O)N(Cc2ccc(Cl)cc2Cl)C(=O)N1CCCN1CCN(c2cccc(Cl)c2Cl)CC1.Cl [Compound 2]
3.06

---

I'd appreciate it if you could supply Diastolic blood pressure values for the items below.
- Test system: arterial blood pressure of normotensive Wistar rats
- method_summary: Influence on blood pressure in normotensive anesthetized rats after i.v. administration
- Type: in vivo, rat
- stated_conditions: 2.0 mg/kg i.v., 60 min, mean, n = 6

I'd like to know its Diastolic blood pressure. The molecule in question is COc1ccccc1N1CCN(CC(O)CN2C(=O)N(Cc3ccc(Cl)cc3Cl)C(=O)C2(C)C)CC1.Cl (centres unmarked)
83.7

Ok, now COc1cccc(N2CCN(CC(O)CN3C(=O)N(Cc4ccc(Cl)cc4Cl)C(=O)C3(C)C)CC2)c1.Cl (centres unmarked)
92.0

Ok, now CC1(C)C(=O)N(Cc2ccc(Cl)cc2Cl)C(=O)N1CC(O)CN1CCN(c2ccc(F)cc2)CC1 (centres unmarked)
84.3

Ok, now Cc1ccc(N2CCN(CC(O)CN3C(=O)N(Cc4ccc(Cl)cc4Cl)C(=O)C3(C)C)CC2)cc1C.Cl (centres unmarked)
97.3

Ok, now `CC1(C)C(=O)N(Cc2ccc(Cl)cc2Cl)C(=O)N1CCCN1CCN(c2cccc(Cl)c2Cl)CC1.Cl`
88.0

Ok, now CC1(C)C(=O)N(Cc2ccc(Cl)cc2Cl)C(=O)N1CC(O)CN1CCN(c2ccc(F)cc2F)CC1 (centres unmarked)
87.3

Ok, now CC1(C)C(=O)N(Cc2ccc(Cl)cc2Cl)C(=O)N1CC(O)CN1CCN(c2ccccc2)CC1.Cl (centres unmarked)
88.7

Ok, now CC1(C)C(=O)N(Cc2ccc(Cl)cc2Cl)C(=O)N1CC(O)CN1CCN(c2ccccc2C#N)CC1.Cl (centres unmarked)
81.7

Ok, now CC1(C)C(=O)N(Cc2ccc(Cl)cc2Cl)C(=O)N1CC(O)CN1CCN(c2ccccc2F)CC1 (centres unmarked)
91.3

Ok, now `CC1(C)C(=O)N(Cc2ccc(Cl)cc2Cl)C(=O)N1CCCCCN1CCN(c2ccccc2)CC1.Cl`
83.8

Ok, now `COc1ccccc1N1CCN(CCCN2C(=O)N(Cc3ccc(Cl)cc3Cl)C(=O)C2(C)C)CC1.Cl`
83.3

---

- tested_target: α1-adrenoceptors (α1-ARs), rat cerebral cortex
- method_summary: Radioligand binding assay with [3H]-prazosin, affinity for α1-ARs
- stated_conditions: three independent experiments in duplicates, read-out: α1-adrenoceptor affinity Ki
endpoint: pKi
Reminder that pKi is minus the log10 of a molar concentration.

Find the measured pKi: item CC1(C)C(=O)N(Cc2ccc(Cl)cc2Cl)C(=O)N1CC(O)CN1CCN(c2ccc(Cl)c(Cl)c2)CC1.Cl (stereo not drawn) [Compound 10] , target or system α1-adrenoceptors (α1-ARs), rat cerebral cortex.
6.11

Ok, now Cc1ccc(N2CCN(CC(O)CN3C(=O)N(Cc4ccc(Cl)cc4Cl)C(=O)C3(C)C)CC2)cc1C.Cl (stereo not drawn) [Compound 12]
6.57

Ok, now COc1ccccc1N1CCN(CCCCCCN2C(=O)N(Cc3ccc(Cl)cc3Cl)C(=O)C2(C)C)CC1.Cl [Compound 5]
7.90

Ok, now CC1(C)C(=O)N(Cc2ccc(Cl)cc2Cl)C(=O)N1CCCN1CCN(c2cccc(Cl)c2Cl)CC1.Cl [Compound 2]
6.27

Ok, now CC1(C)C(=O)N(Cc2ccc(Cl)cc2Cl)C(=O)N1CC(O)CN1CCN(c2ccc(F)cc2)CC1 (stereo not drawn) [Compound 8]
7.36

Ok, now CC1(C)C(=O)N(Cc2ccc(Cl)cc2Cl)C(=O)N1CC(O)CN1CCN(C(c2ccccc2)c2ccccc2)CC1 (stereo not drawn) [Compound 15]
5.61

Ok, now CC1(C)C(=O)N(Cc2ccc(Cl)cc2Cl)C(=O)N1CC(O)CN1CCN(c2ccc(F)cc2F)CC1 (stereo not drawn) [Compound 9]
7.38

Ok, now CC1(C)C(=O)N(Cc2ccc(Cl)cc2Cl)C(=O)N1CCCCCCN1CCN(c2ccc(Cl)c(Cl)c2)CC1.Cl [Compound 4]
6.59

Ok, now COc1cccc(N2CCN(CC(O)CN3C(=O)N(Cc4ccc(Cl)cc4Cl)C(=O)C3(C)C)CC2)c1.Cl (stereo not drawn) [Compound 14]
6.54

Ok, now CC1(C)C(=O)N(Cc2ccc(Cl)cc2Cl)C(=O)N1CC(O)CN1CCN(c2ccccc2)CC1.Cl (stereo not drawn) [Compound 6]
7.28

Ok, now CC1(C)C(=O)N(Cc2ccc(Cl)cc2Cl)C(=O)N1CC(O)CN1CCN(c2ccccc2F)CC1 (stereo not drawn) [Compound 7]
7.00

Ok, now COc1ccccc1N1CCN(CC(O)CN2C(=O)N(Cc3ccc(Cl)cc3Cl)C(=O)C2(C)C)CC1.Cl (stereo not drawn) [Compound 13]
7.54

Ok, now CC1(C)C(=O)N(Cc2ccc(Cl)cc2Cl)C(=O)N1CCCCCN1CCN(c2ccccc2)CC1.Cl [Compound 3]
7.37

Ok, now CC1(C)C(=O)N(Cc2ccc(Cl)cc2Cl)C(=O)N1CC(O)CN1CCN(c2ccccc2C#N)CC1.Cl (stereo not drawn) [Compound 11]
7.59

Ok, now COc1ccccc1N1CCN(CCCN2C(=O)N(Cc3ccc(Cl)cc3Cl)C(=O)C2(C)C)CC1.Cl [Compound 1]
7.51
